# condition_label: in DMSO, 308.15 K
measurement_type: solubility (mole fraction)
Numbers only.

Query: solubility (mole fraction) for Nc1c([N+](=O)[O-])c2no[n+]([O-])c2c2no[n+]([O-])c12 ?
Result: 0.0187

----------
# condition_label: in acetone, 298.15 K
measurement_type: solubility (mole fraction)
Numbers only.

Query: solubility (mole fraction) for Nc1c([N+](=O)[O-])c2no[n+]([O-])c2c2no[n+]([O-])c12 ?
Result: 0.000968

----------
# condition_label: in cyclohexanone, 293.15 K
measurement_type: solubility (mole fraction)
Answers are plain numbers.

Query: solubility (mole fraction) for Nc1c([N+](=O)[O-])c2no[n+]([O-])c2c2no[n+]([O-])c12 ?
Result: 0.00198

----------
# condition_label: in ethanol, 288.15 K
measurement_type: solubility (mole fraction)

Query: solubility (mole fraction) for Nc1c([N+](=O)[O-])c2no[n+]([O-])c2c2no[n+]([O-])c12 ?
Result: 6.85e-06

----------
# condition_label: in propionic acid, 333.15 K
measurement_type: solubility (mole fraction)
Numbers only.

Query: solubility (mole fraction) for Nc1c([N+](=O)[O-])c2no[n+]([O-])c2c2no[n+]([O-])c12 ?
Result: 0.00014

----------
# condition_label: in methanol, 323.15 K
measurement_type: solubility (mole fraction)
Numbers only.

Query: solubility (mole fraction) for Nc1c([N+](=O)[O-])c2no[n+]([O-])c2c2no[n+]([O-])c12 ?
Result: 7.91e-05

----------
# condition_label: in methanol, 303.15 K
measurement_type: solubility (mole fraction)

Query: solubility (mole fraction) for Nc1c([N+](=O)[O-])c2no[n+]([O-])c2c2no[n+]([O-])c12 ?
Result: 3.14e-05

----------
# condition_label: in DMF, 308.15 K
measurement_type: solubility (mole fraction)
One number for each entry.

Query: solubility (mole fraction) for Nc1c([N+](=O)[O-])c2no[n+]([O-])c2c2no[n+]([O-])c12 ?
Result: 0.0126

----------
# condition_label: in NMP, 303.15 K
measurement_type: solubility (mole fraction)
Numbers only.

Query: solubility (mole fraction) for Nc1c([N+](=O)[O-])c2no[n+]([O-])c2c2no[n+]([O-])c12 ?
Result: 0.0131

----------
# condition_label: in ethanol, 323.15 K
measurement_type: solubility (mole fraction)

Query: solubility (mole fraction) for Nc1c([N+](=O)[O-])c2no[n+]([O-])c2c2no[n+]([O-])c12 ?
Result: 3.94e-05

----------
# condition_label: in acetic acid, 293.15 K
measurement_type: solubility (mole fraction)
Give bare numbers.

Query: solubility (mole fraction) for Nc1c([N+](=O)[O-])c2no[n+]([O-])c2c2no[n+]([O-])c12 ?
Result: 7.86e-05

----------
# condition_label: in DMSO, 323.15 K
measurement_type: solubility (mole fraction)
One number for each entry.

Query: solubility (mole fraction) for Nc1c([N+](=O)[O-])c2no[n+]([O-])c2c2no[n+]([O-])c12 ?
Result: 0.0286

----------
# condition_label: in acetonitrile, 298.15 K
measurement_type: solubility (mole fraction)
Answers are plain numbers.

Query: solubility (mole fraction) for Nc1c([N+](=O)[O-])c2no[n+]([O-])c2c2no[n+]([O-])c12 ?
Result: 0.000434

----------
# condition_label: in 1,2-dichloroethane, 328.15 K
measurement_type: solubility (mole fraction)
One number for each entry.

Query: solubility (mole fraction) for Nc1c([N+](=O)[O-])c2no[n+]([O-])c2c2no[n+]([O-])c12 ?
Result: 0.000122

----------
# condition_label: in DMF, 318.15 K
measurement_type: solubility (mole fraction)
Numbers only.

Query: solubility (mole fraction) for Nc1c([N+](=O)[O-])c2no[n+]([O-])c2c2no[n+]([O-])c12 ?
Result: 0.0175

----------
# condition_label: in toluene, 293.15 K
measurement_type: solubility (mole fraction)
Give bare numbers.

Query: solubility (mole fraction) for Nc1c([N+](=O)[O-])c2no[n+]([O-])c2c2no[n+]([O-])c12 ?
Result: 1.34e-05

----------
# condition_label: in ethyl acetate, 308.15 K
measurement_type: solubility (mole fraction)

Query: solubility (mole fraction) for Nc1c([N+](=O)[O-])c2no[n+]([O-])c2c2no[n+]([O-])c12 ?
Result: 0.000367

----------
# condition_label: in ethyl acetate, 328.15 K
measurement_type: solubility (mole fraction)
One number for each entry.

Query: solubility (mole fraction) for Nc1c([N+](=O)[O-])c2no[n+]([O-])c2c2no[n+]([O-])c12 ?
Result: 0.000605

----------
# condition_label: in dichloromethane, 308.15 K
measurement_type: solubility (mole fraction)
Give bare numbers.

Query: solubility (mole fraction) for Nc1c([N+](=O)[O-])c2no[n+]([O-])c2c2no[n+]([O-])c12 ?
Result: 3.31e-05

----------
# condition_label: in cyclohexanone, 303.15 K
measurement_type: solubility (mole fraction)
One number for each entry.

Query: solubility (mole fraction) for Nc1c([N+](=O)[O-])c2no[n+]([O-])c2c2no[n+]([O-])c12 ?
Result: 0.0024

----------
# condition_label: in NMP, 288.15 K
measurement_type: solubility (mole fraction)

Query: solubility (mole fraction) for Nc1c([N+](=O)[O-])c2no[n+]([O-])c2c2no[n+]([O-])c12 ?
Result: 0.00799

----------
# condition_label: in toluene, 328.15 K
measurement_type: solubility (mole fraction)
Numbers only.

Query: solubility (mole fraction) for Nc1c([N+](=O)[O-])c2no[n+]([O-])c2c2no[n+]([O-])c12 ?
Result: 9.4e-05

----------
# condition_label: in o-xylene, 333.15 K
measurement_type: solubility (mole fraction)
One number for each entry.

Query: solubility (mole fraction) for Nc1c([N+](=O)[O-])c2no[n+]([O-])c2c2no[n+]([O-])c12 ?
Result: 0.000208

----------
# condition_label: in toluene, 318.15 K
measurement_type: solubility (mole fraction)
Give bare numbers.

Query: solubility (mole fraction) for Nc1c([N+](=O)[O-])c2no[n+]([O-])c2c2no[n+]([O-])c12 ?
Result: 5.63e-05

----------
# condition_label: in propionic acid, 288.15 K
measurement_type: solubility (mole fraction)
Give bare numbers.

Query: solubility (mole fraction) for Nc1c([N+](=O)[O-])c2no[n+]([O-])c2c2no[n+]([O-])c12 ?
Result: 1.94e-05

----------
# condition_label: in cyclohexanone, 318.15 K
measurement_type: solubility (mole fraction)
Give bare numbers.

Query: solubility (mole fraction) for Nc1c([N+](=O)[O-])c2no[n+]([O-])c2c2no[n+]([O-])c12 ?
Result: 0.00328

----------
# condition_label: in dichloromethane, 298.15 K
measurement_type: solubility (mole fraction)
One number for each entry.

Query: solubility (mole fraction) for Nc1c([N+](=O)[O-])c2no[n+]([O-])c2c2no[n+]([O-])c12 ?
Result: 2.15e-05

----------
# condition_label: in o-xylene, 293.15 K
measurement_type: solubility (mole fraction)
Answers are plain numbers.

Query: solubility (mole fraction) for Nc1c([N+](=O)[O-])c2no[n+]([O-])c2c2no[n+]([O-])c12 ?
Result: 3.15e-05

----------
# condition_label: in 1,2-dichloroethane, 313.15 K
measurement_type: solubility (mole fraction)
One number for each entry.

Query: solubility (mole fraction) for Nc1c([N+](=O)[O-])c2no[n+]([O-])c2c2no[n+]([O-])c12 ?
Result: 7.49e-05

----------
# condition_label: in acetonitrile, 288.15 K
measurement_type: solubility (mole fraction)
Give bare numbers.

Query: solubility (mole fraction) for Nc1c([N+](=O)[O-])c2no[n+]([O-])c2c2no[n+]([O-])c12 ?
Result: 0.000322

----------
# condition_label: in methanol, 293.15 K
measurement_type: solubility (mole fraction)

Query: solubility (mole fraction) for Nc1c([N+](=O)[O-])c2no[n+]([O-])c2c2no[n+]([O-])c12 ?
Result: 1.88e-05

----------
# condition_label: in ethanol, 308.15 K
measurement_type: solubility (mole fraction)

Query: solubility (mole fraction) for Nc1c([N+](=O)[O-])c2no[n+]([O-])c2c2no[n+]([O-])c12 ?
Result: 1.95e-05

----------
# condition_label: in toluene, 298.15 K
measurement_type: solubility (mole fraction)
Numbers only.

Query: solubility (mole fraction) for Nc1c([N+](=O)[O-])c2no[n+]([O-])c2c2no[n+]([O-])c12 ?
Result: 1.84e-05

----------
# condition_label: in cyclohexanone, 308.15 K
measurement_type: solubility (mole fraction)
Answers are plain numbers.

Query: solubility (mole fraction) for Nc1c([N+](=O)[O-])c2no[n+]([O-])c2c2no[n+]([O-])c12 ?
Result: 0.00266
